# Tgt: Glutamate NMDA receptor; GRIN1/GRIN2B (Homo sapiens, UniProt Q05586+Q13224)
# Sequence (Q13224 whole entry, other chains not shown): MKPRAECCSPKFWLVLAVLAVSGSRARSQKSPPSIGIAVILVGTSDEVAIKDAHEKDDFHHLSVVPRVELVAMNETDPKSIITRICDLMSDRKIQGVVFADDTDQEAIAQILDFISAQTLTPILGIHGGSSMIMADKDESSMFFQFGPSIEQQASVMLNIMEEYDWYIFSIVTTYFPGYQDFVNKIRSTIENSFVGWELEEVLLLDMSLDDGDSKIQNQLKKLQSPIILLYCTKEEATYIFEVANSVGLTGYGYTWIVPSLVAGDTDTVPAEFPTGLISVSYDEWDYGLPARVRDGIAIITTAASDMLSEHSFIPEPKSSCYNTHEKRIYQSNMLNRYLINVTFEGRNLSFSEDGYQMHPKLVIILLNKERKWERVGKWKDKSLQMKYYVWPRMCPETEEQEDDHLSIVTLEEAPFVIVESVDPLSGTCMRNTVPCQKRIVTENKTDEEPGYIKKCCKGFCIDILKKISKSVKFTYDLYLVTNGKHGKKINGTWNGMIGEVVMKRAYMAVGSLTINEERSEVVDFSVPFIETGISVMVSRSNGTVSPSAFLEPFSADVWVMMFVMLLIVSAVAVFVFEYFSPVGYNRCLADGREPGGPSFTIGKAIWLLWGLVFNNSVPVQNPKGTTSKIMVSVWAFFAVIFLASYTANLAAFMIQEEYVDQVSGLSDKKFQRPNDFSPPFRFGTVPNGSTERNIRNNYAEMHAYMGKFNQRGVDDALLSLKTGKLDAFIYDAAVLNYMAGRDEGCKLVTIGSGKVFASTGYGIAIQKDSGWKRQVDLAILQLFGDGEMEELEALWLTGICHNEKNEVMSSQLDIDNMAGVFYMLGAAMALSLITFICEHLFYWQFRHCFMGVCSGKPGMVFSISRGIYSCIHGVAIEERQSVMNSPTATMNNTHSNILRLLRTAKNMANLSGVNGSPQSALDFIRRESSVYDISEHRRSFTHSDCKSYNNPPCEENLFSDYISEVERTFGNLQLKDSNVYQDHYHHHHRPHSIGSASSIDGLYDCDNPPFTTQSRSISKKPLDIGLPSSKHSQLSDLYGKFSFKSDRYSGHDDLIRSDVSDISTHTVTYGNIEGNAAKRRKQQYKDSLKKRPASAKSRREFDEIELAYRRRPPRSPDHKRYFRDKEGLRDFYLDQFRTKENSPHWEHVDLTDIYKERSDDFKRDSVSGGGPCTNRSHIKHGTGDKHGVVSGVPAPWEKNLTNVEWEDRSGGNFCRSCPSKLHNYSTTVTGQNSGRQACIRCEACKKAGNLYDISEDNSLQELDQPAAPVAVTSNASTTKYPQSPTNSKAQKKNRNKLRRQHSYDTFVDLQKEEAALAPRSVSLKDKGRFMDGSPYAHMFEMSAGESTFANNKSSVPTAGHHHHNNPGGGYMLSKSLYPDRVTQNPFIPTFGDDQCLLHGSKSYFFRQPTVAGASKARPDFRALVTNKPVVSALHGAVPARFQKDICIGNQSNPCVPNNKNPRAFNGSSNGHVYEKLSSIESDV
# Test Summary: Inhibition of NMDA-evoked increased intracellular [Ca2+] in cells expressing NR1/NR2B receptor
Quantity Measured: pIC50
Recall that pIC50 is obtained by taking minus log10 of the concentration measured in molar.

# input # returns recorded pIC50 (system: Glutamate NMDA receptor; GRIN1/GRIN2B (Homo sapiens, UniProt Q05586+Q13224)) for `Cc1ccc(CC2CCN(C(=O)C(=O)Nc3ccc4c(c3)OCC(=O)N4)CC2)cc1`
# output 7.74

# input # returns recorded pIC50 (system: Glutamate NMDA receptor; GRIN1/GRIN2B (Homo sapiens, UniProt Q05586+Q13224)) for `O=C(Nc1ccc2[nH]c(=O)oc2c1)C(=O)N1CCC(Oc2ccc(Cl)cc2)CC1`
# output 8.15

# input # returns recorded pIC50 (system: Glutamate NMDA receptor; GRIN1/GRIN2B (Homo sapiens, UniProt Q05586+Q13224)) for `O=C(c1cc2cc(O)ccc2[nH]1)N1CCC(Cc2ccccc2)CC1`
# output 7.38

# input # returns recorded pIC50 (system: Glutamate NMDA receptor; GRIN1/GRIN2B (Homo sapiens, UniProt Q05586+Q13224)) for `O=C(Nc1ccc2[nH]c(=O)[nH]c2c1)C(=O)N1CCC(Oc2ccc(Cl)cc2)CC1`
# output 8.10

# input # returns recorded pIC50 (system: Glutamate NMDA receptor; GRIN1/GRIN2B (Homo sapiens, UniProt Q05586+Q13224)) for `O=C(Nc1ccc2[nH]c(=O)[nH]c2c1)C(=O)N1CCC(Cc2ccccc2)CC1`
# output 8.22

# input # returns recorded pIC50 (system: Glutamate NMDA receptor; GRIN1/GRIN2B (Homo sapiens, UniProt Q05586+Q13224)) for `O=C(Nc1ccc2[nH]c(=O)sc2c1)C(=O)N1CCC(Cc2ccccc2)CC1`
# output 8.05

----------
# Tgt: Glutamate NMDA receptor; GRIN1/GRIN2B (Homo sapiens, UniProt Q05586+Q13224)
# Test Summary: Inhibition of NMDA-evoked increased intracellular [Ca2+] in cells expressing NR1/NR2B receptor
Quantity Measured: log10 of IC50 (log10 of the value in nM)
Log scale reminder: IC50 in nM, then log10 taken.

>  <Smiles Data>
Cc1ccc(OC2CCN(C(=O)C(=O)Nc3ccc4[nH]c(=O)sc4c3)CC2)cc1

>  <Quantity Measured>
log10 of IC50

>  <Val>
0.90

$$$$

# input Using the record for `O=C1Nc2ccc(NC(=O)C(=O)N3CCC(Cc4ccccc4)CC3)cc2CO1` , report its log10 of IC50.
# output 1.46

# input Using the record for `O=C(Nc1ccc2[nH]c(=O)oc2c1)C(=O)N1CCC(Cc2ccccc2)CC1` , report its log10 of IC50.
# output 0.48

# input Using the record for `Cc1ccc(CC2(O)CCN(CCOc3ccc(O)cc3)CC2)cc1` , report its log10 of IC50.
# output 0.70

# input Using the record for `Cc1ccc(CC2CCN(C(=O)C(=O)Nc3ccc4c(c3)CC(=O)N4)CC2)cc1` , report its log10 of IC50.
# output 1.18

# input Using the record for `O=C(CCN1CCC(Cc2ccc(F)cc2)CC1)c1ccc2nc(O)oc2c1` , report its log10 of IC50.
# output 1.68

# input Using the record for `O=C(Nc1ccc2[nH]c(=O)[nH]c2c1)C(=O)N1CCC(Cc2ccc(F)cc2)CC1` , report its log10 of IC50.
# output 0.30

----------
# Tgt: Glutamate [NMDA] receptor
# Test Summary: Inhibition of [3H]-Ro-25-6981 binding to NMDA receptor
Quantity Measured: pIC50
Recall that pIC50 is obtained by taking minus log10 of the concentration measured in molar.

# input Using the record for `O=C(Nc1ccc(O)cc1)C(=O)N1CCC(Cc2ccccc2)CC1` , report its pIC50.
# output 7.80

# input Using the record for `O=C(Nc1ccc2[nH]c(=O)oc2c1)C(=O)N1CCC(Cc2ccccc2)CC1` , report its pIC50.
# output 8.10

# input Using the record for `Cc1ccc(OC2CCN(C(=O)C(=O)Nc3ccc4nc(S)[nH]c4c3)CC2)cc1` , report its pIC50.
# output 6.88

# input Using the record for `Cc1ccc(CC2CCN(C(=O)C(=O)Nc3ccc4c(c3)CC(=O)N4)CC2)cc1` , report its pIC50.
# output 7.27

# input Using the record for `O=C(CCN1CCC(Cc2ccc(F)cc2)CC1)c1ccc2nc(O)oc2c1` , report its pIC50.
# output 8.10

----------
# Tgt: Glutamate [NMDA] receptor
# Test Summary: Inhibition of [3H]-Ro-25-6981 binding to NMDA receptor
Lab note: compare IC50 with 20 nM, writing criterion met if less and criterion not met if equal or more.

Solved cases below.
>  <Molecule>
O=C(Nc1ccc2[nH]c(=O)sc2c1)C(=O)N1CCC(Cc2ccccc2)CC1

>  <Tgt>
Glutamate [NMDA] receptor

>  <Class Name>
criterion met

$$$$
>  <Molecule>
O=C1Nc2ccc(NC(=O)C(=O)N3CCC(Cc4ccccc4)CC3)cc2CO1

>  <Tgt>
Glutamate [NMDA] receptor

>  <Class Name>
criterion not met

$$$$
>  <Molecule>
O=C(Nc1ccc2[nH]c(=O)[nH]c2c1)C(=O)N1CCC(Cc2ccccc2)CC1

>  <Tgt>
Glutamate [NMDA] receptor

>  <Class Name>
criterion met

$$$$

# input # check: IC50 < 20 nM for `Cc1ccc(CC2CCN(C(=O)C(=O)Nc3ccc4c(c3)OCC(=O)N4)CC2)cc1`
# output criterion met

# input # check: IC50 < 20 nM for `O=C(Nc1ccc2[nH]c(=O)oc2c1)C(=O)N1CCC(Oc2ccc(Cl)cc2)CC1`
# output criterion not met

# input # check: IC50 < 20 nM for `Cc1ccc(OC2CCN(C(=O)C(=O)Nc3ccc4[nH]c(=O)sc4c3)CC2)cc1`
# output criterion met

# input # check: IC50 < 20 nM for `O=C(Nc1ccc2[nH]c(=O)[nH]c2c1)C(=O)N1CCC(Cc2ccc(F)cc2)CC1`
# output criterion met

# input # check: IC50 < 20 nM for O=C(Nc1ccc2[nH]c(=O)oc2c1)C(=O)N1CCC(Cc2ccc(F)cc2)CC1 [RADIPRODIL]
# output criterion met

# input # check: IC50 < 20 nM for `O=C(Nc1ccc2[nH]c(=O)[nH]c2c1)C(=O)N1CCC(Oc2ccc(Cl)cc2)CC1`
# output criterion not met

----------
# Tgt: Glutamate NMDA receptor; GRIN1/GRIN2B (Homo sapiens, UniProt Q05586+Q13224)
# Test Summary: Inhibition of NMDA-evoked increased intracellular [Ca2+] in cells expressing NR1/NR2B receptor
Quantity Measured: pIC50
Recall that pIC50 is obtained by taking minus log10 of the concentration measured in molar.

Please review the following examples before continuing.
>  <Compound>
O=C(Nc1ccc(O)cc1)C(=O)N1CCC(Cc2ccccc2)CC1

>  <pIC50>
7.51

$$$$
>  <Compound>
Cc1ccc(OC2CCN(C(=O)C(=O)Nc3ccc4nc(S)[nH]c4c3)CC2)cc1

>  <pIC50>
8.00

$$$$

# input # returns recorded pIC50 (system: Glutamate NMDA receptor; GRIN1/GRIN2B (Homo sapiens, UniProt Q05586+Q13224)) for O=C(Nc1ccc2[nH]c(=O)oc2c1)C(=O)N1CCC(Cc2ccc(F)cc2)CC1 [RADIPRODIL]
# output 8.40
